experimental system: T1, hRAGE-Fc (human, UniProt Q15109 23-342, biotin label in the selections and HTRF assays)
T1 construct: extracellular domain; also called biotin labeled hRAGE-Fc; Biotin-labeled RAGE-Fc; not shown: Fc part
T1 sequence (Q15109 23-342): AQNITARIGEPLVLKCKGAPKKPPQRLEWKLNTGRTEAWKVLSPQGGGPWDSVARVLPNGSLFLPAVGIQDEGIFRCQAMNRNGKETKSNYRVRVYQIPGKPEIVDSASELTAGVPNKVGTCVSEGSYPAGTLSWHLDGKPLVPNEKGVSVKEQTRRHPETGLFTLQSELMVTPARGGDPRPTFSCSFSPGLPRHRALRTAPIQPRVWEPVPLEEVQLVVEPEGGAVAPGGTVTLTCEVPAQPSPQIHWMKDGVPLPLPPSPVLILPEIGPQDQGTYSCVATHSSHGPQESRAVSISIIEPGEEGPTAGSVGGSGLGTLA
protocol details: HTRF competition, scFv vs labelled parental XT-M4 (competitor) on biotin hRAGE-Fc
property: pIC50
For clarity, pIC50 is expressed as the negative log10 of concentration in mol/L.

For orientation, consider the following solved cases.
binder | pIC50
6A10 scFv (scFv) scFv: DIQMTQSPSSLSASVGDRVTITCRASQDVGIYVNWFQQKPGKAPRRLIYRATNLADGVPSRFSGSRSGTDFTLTISSLQPEDFATYYCLQFDAHPLTFGGGTKVEIKDGGGSGGGGSGGGGSSEVQLVESGGGLVQPGGSLRLSCAASGFTFNNYWMTWVRQAPGKGLEWVASIDNSGDNTYYPDSVKDRFTISRDNAKNSLYLQMNSLRAEDTAVYYCARGGDITTGFDYWGQGTLVTVSS | 8.16
6E3 scFv (scFv) scFv: DIQMTQSPSSLSASVGDRVTITCRASQDVGIYVNWFQQKPGKAPRRLIYRATNLADGVPSRFSGSRSGTDFTLTISSLQPEDFATYYCLEFDEHPLTFGGGTKVEIKDGGGSGGGGSGGGGSSEVQLVESGGGLVQPGGSLRLSCAASGFTFNNYWMTWVRQAPGKGLEWVASIDNSGDNTYYPDSVKDRFTISRDNAKNSLYLQMNSLRAEDTAVYYCARGGDIRVSLDFWGQGTLVTVSS | 8.76
3D2 scFv (scFv) scFv: DIQMTQSPSSLSASVGDRVTITCRASQDVGIYVNWFQQKPGKAPRRLIYRATNLADGVPSRFSGSRSGTDFTLTISSLQPEDFATYYCLEFDEHPLTFGGGTKVEIKDGGGSGGGGSGGGGSSEVQLVESGGGLVQPGGSLRLSCAASGFTFNNYWMTWVRQAPGKGLEWVASIDNSGDNTYYPDSVKDRFTISRDNAKNSLYLQMNSLRAEDTAVYYCARGGDIRVSLDHWGQGTLVTVSS | 8.89

Field: next binder
Identify measured pIC50 associated with 6C3 scFv (scFv) scFv: DIQMTQSPSSLSASVGDRVTITCRASQDVGIYVNWFQQKPGKAPRRLIYRATNLADGVPSRFSGSRSGTDFTLTISSLQPEDFATYYCLEFDEHPLTFGGGTKVEIKDGGGSGGGGSGGGGSSEVQLVESGGGLVQPGGSLRLSCAASGFTFNNYWMTWVRQAPGKGLEWVASIDNSGDNTYYPDSVKDRFTISRDNAKNSLYLQMNSLRAEDTAVYYCARGGDITLGLDVWGQGTLVTVSS
8.82
